B1: Azoarcus group I ribozyme (parent)
chain: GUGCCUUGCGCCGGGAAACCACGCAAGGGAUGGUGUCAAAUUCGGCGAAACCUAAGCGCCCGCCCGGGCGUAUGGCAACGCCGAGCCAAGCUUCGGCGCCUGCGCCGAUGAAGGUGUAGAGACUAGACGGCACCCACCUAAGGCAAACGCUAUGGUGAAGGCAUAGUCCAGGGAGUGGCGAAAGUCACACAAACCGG

Variants of: B1
Assay: reverse-splicing fitness (ratio to wild type); higher = more active; in vitro selection; Mg2+ level not given
Just so you know, the groups by reverse-splicing fitness go like this: low end = under 0.007, middle = from 0.007 up to 0.02, high end = 0.02 and over

[
  {
    "mutantCode": "C82U A111G A120U C150U U176A",
    "qualitativeLabel": "low end"
  },
  {
    "mutantCode": "A111G A145C C150A C169G U176C",
    "qualitativeLabel": "middle"
  },
  {
    "mutantCode": "C82U A111G A120C A145C C169U U176C",
    "qualitativeLabel": "middle"
  },
  {
    "mutantCode": "A111C A120U A145G C150U C169A U176G",
    "qualitativeLabel": "low end"
  },
  {
    "mutantCode": "C82U A120U A145C C150U C169G U176A",
    "qualitativeLabel": "low end"
  },
  {
    "mutantCode": "C82G A111G A145U C150U U176C",
    "qualitativeLabel": "high end"
  },
  {
    "mutantCode": "C82U A120U C150U",
    "qualitativeLabel": "high end"
  },
  {
    "mutantCode": "A111G A120U A145C C169U",
    "qualitativeLabel": "high end"
  },
  {
    "mutantCode": "C82G A120U A145C C169G U176A",
    "qualitativeLabel": "low end"
  },
  {
    "mutantCode": "C82U A111G A120U C169U U176C",
    "qualitativeLabel": "low end"
  },
  {
    "mutantCode": "C82A A111G A120G A145G C169G U176G",
    "qualitativeLabel": "low end"
  },
  {
    "mutantCode": "C82U A111U A145C C150U",
    "qualitativeLabel": "high end"
  },
  {
    "mutantCode": "C82U A111G A120G A145U C169U U176A",
    "qualitativeLabel": "high end"
  },
  {
    "mutantCode": "C82A A111C A120U A145G C150U",
    "qualitativeLabel": "middle"
  },
  {
    "mutantCode": "C82G A111C A145C C169G U176G",
    "qualitativeLabel": "low end"
  },
  {
    "mutantCode": "C82A A145C U176C",
    "qualitativeLabel": "high end"
  },
  {
    "mutantCode": "C82U A111U A120U A145U C169U U176G",
    "qualitativeLabel": "low end"
  },
  {
    "mutantCode": "A111U A120C A145G C150G C169A U176G",
    "qualitativeLabel": "middle"
  },
  {
    "mutantCode": "C82A A111U A120C A145C C150A U176G",
    "qualitativeLabel": "low end"
  },
  {
    "mutantCode": "C82U A145C C150G U176C",
    "qualitativeLabel": "high end"
  },
  {
    "mutantCode": "C82U A120C A145G C150A C169G U176C",
    "qualitativeLabel": "high end"
  },
  {
    "mutantCode": "C82G A111C A120C A145U C150U U176A",
    "qualitativeLabel": "middle"
  },
  {
    "mutantCode": "C82A A120U A145G C150U C169U U176G",
    "qualitativeLabel": "low end"
  },
  {
    "mutantCode": "C82A A111G A120U A145C C150G C169U U176A",
    "qualitativeLabel": "low end"
  },
  {
    "mutantCode": "C82G A111U A120G A145C C169G U176C",
    "qualitativeLabel": "middle"
  },
  {
    "mutantCode": "C82G A111G A120C A145U C150U U176C",
    "qualitativeLabel": "high end"
  },
  {
    "mutantCode": "C82G A111U A120U A145U C150U C169G U176C",
    "qualitativeLabel": "low end"
  },
  {
    "mutantCode": "C82A A120C C150A C169G U176C",
    "qualitativeLabel": "high end"
  },
  {
    "mutantCode": "C82A A111U A145C C150G C169G U176C",
    "qualitativeLabel": "middle"
  },
  {
    "mutantCode": "C82A A111C A120G C150A C169G U176A",
    "qualitativeLabel": "middle"
  },
  {
    "mutantCode": "C82A A145G C150U C169G U176G",
    "qualitativeLabel": "low end"
  },
  {
    "mutantCode": "C82G A111C A120U A145G C150A C169A",
    "qualitativeLabel": "middle"
  },
  {
    "mutantCode": "C82G A111G A120U A145C C150A C169A",
    "qualitativeLabel": "low end"
  },
  {
    "mutantCode": "A111C A120G A145G C150G C169U U176C",
    "qualitativeLabel": "middle"
  },
  {
    "mutantCode": "C82A A111C A120U A145G C150A C169G U176C",
    "qualitativeLabel": "low end"
  },
  {
    "mutantCode": "A111G A120G A145U",
    "qualitativeLabel": "high end"
  },
  {
    "mutantCode": "C82A A111G A120G A145C C169G",
    "qualitativeLabel": "middle"
  },
  {
    "mutantCode": "C82A A111C A145U C150U C169A U176A",
    "qualitativeLabel": "middle"
  },
  {
    "mutantCode": "C82A A111U A145U C150A C169A U176A",
    "qualitativeLabel": "middle"
  },
  {
    "mutantCode": "C82G A111U A120C A145G C169A U176C",
    "qualitativeLabel": "high end"
  },
  {
    "mutantCode": "C82A A111C A145U C150A C169G U176A",
    "qualitativeLabel": "middle"
  },
  {
    "mutantCode": "C82U A120C A145C C150U U176G",
    "qualitativeLabel": "low end"
  },
  {
    "mutantCode": "C82A A111C A120G A145G C150A C169G U176G",
    "qualitativeLabel": "low end"
  },
  {
    "mutantCode": "C82A A111G A120C C150G C169A",
    "qualitativeLabel": "middle"
  }
]
